Recorded composite z-score, one value per entry.
Target: Fibroblast growth factor 2 (Homo sapiens) (UniProt P09038)
Sequence (P09038 whole entry, looked up): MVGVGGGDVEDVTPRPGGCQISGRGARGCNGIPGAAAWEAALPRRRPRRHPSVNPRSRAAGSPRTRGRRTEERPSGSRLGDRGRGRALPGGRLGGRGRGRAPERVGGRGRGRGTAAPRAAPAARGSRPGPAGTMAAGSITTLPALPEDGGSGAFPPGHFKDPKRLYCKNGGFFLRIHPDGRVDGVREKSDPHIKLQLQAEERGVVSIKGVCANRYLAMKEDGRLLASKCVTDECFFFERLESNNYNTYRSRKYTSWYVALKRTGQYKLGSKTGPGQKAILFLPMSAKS
Assay: FGF2 binders on small-molecule microarrays, primary screen, biochemical, small-molecule microarray, 635/667 nm fluorescence (AID 1133)
Conditions: small-molecule microarray binding, FGF2, fluorescence 635/667; higher = more signal
Reply briefly: the number, and no unit.

Observe how each entry below is paired with its result.
[
  {
    "compound": "COc1cccc([C@H]2Oc3ccc(OC)cc3C(=NOC[C@@H](O)COCc3ccco3)[C@@H]2O)c1",
    "result number": -0.51
  },
  {
    "compound": "CO[C@@H]1COC(=O)CC=C[C@@H](C)[C@H](OC)COC(=O)[C@@H](C)COC(=O)CC=C[C@H]1C",
    "result number": 0.867
  },
  {
    "compound": "CCOC(=O)[C@H](CC(C)C)NC(=O)CCC1CC(OC(=O)NCCc2ccc(F)cc2)CC2(CCCC(COC(=O)NCC3CCCCC3)O2)O1 (stereo not given in full)",
    "result number": 0.631
  },
  {
    "compound": "CCOC(=O)[C@H](CC(C)C)NC(=O)CCC1CC(OC(=O)NCCc2ccc(F)cc2)CC2(CCCC(COC(=O)NCCc3ccccc3OC)O2)O1 (stereo not given in full)",
    "result number": 0.399
  },
  {
    "compound": "CO[C@@H]1C=CCC(=O)N[C@@H](C)C(=O)OC[C@@H](OC)[C@H](C)CCCC(=O)OC[C@H]1C",
    "result number": 0.343
  },
  {
    "compound": "CC[C@@H](c1ccccc1)n1c(=O)n2n(c1=O)[C@H]1[C@H](O)[C@@H]3O[C@@H]3C(=O)[C@H]1CC2",
    "result number": 0.319
  },
  {
    "compound": "CCOC(=O)CCN1C(=O)[C@H]2[C@H]3[C@H](O)[C@H](O)CC(=NOCC(C)C)[C@H]3CC[C@H]2C1=O",
    "result number": -0.0435
  },
  {
    "compound": "COC(=O)[C@H](C)NC(=O)CCC1CC(OC(=O)NCCc2ccc(F)cc2)CC2(CCCC(COC(=O)NCc3cccc(C(F)(F)F)c3)O2)O1 (stereo not given in full)",
    "result number": 0.617
  },
  {
    "compound": "Cc1cc2c(nc1C)CCCN2CC(O)CN1CCCc2nc(C)c(C)cc21",
    "result number": 1.06
  },
  {
    "compound": "COC(=O)CC=C[C@@H](C)[C@@H](C=NO[C@@H](C)c1cn([C@H](CO)Cc2ccccc2)nn1)OC",
    "result number": 0.411
  }
]

Attention now shifts to the item below.
Hi! What's the reported composite z-score for "COc1cccc([C@H]2Oc3ccc(OC)cc3C(=NOC[C@@H](C)[C@H](OCc3ccccc3)C(C)C)[C@@H]2O)c1" on Fibroblast growth factor 2 (Homo sapiens) (UniProt P09038)? 0.0521
